The entries below come with measured growth values attached.
# System: UACC-62 melanoma
# Measurement Description: NCI-60 one-dose screen, 48 h (100 = growth as untreated, 0 = no growth, -100 = all killed)
# Settings: 10 µM unless noted
This is part of a sample that, as a whole, favours compounds with a hit. Of some 83,000 tested, about 20% had one in any assay.
Provide only the numeric value, understood in %.

What does the record list as growth for O=[N+]([O-])c1ccc(OCc2ccc(S(=O)(=O)F)c(Cl)c2)c(Cl)c1 ?
92.6

====

# System: SK-MEL-5 melanoma
# Measurement Description: NCI-60 one-dose screen, 48 h
# Settings: 10 µM unless noted
The panel holds about 83,000 compounds, 20% with a hit somewhere; the sample as a whole holds those more often. Calls of active or inactive are those of the source. The calls were made as follows: active = growth percent below 10; inactive = the rest.
API: response.call in y (active), n (inactive)

Study these solved cases before continuing.
# Compound, Target Or System, Category
data = [
    ("CC[C@H](C)[C@H](NC(=O)[C@H]1CCCCN1C)C(=O)N(C)[C@H](CCc1nc(C(=O)N[C@@H](Cc2ccccc2)C[C@H](C)C(=O)O)cs1)C(C)C", "SK-MEL-5 melanoma", "y"),
    ("O=C1C=C(N2CC2)c2ccccc2C1=O", "SK-MEL-5 melanoma", "n"),
]

From here, focus on the item given below.
How did this test come out for CC(=O)C(N)Cc1ccccc1 (centres undefined) ?
n

====

# Tested on: A498 renal
# Measurement Description: NCI-60 one-dose screen, 48 h (100 = growth as untreated, 0 = no growth, -100 = all killed)
# Settings: 10 µM unless noted
# Method: Growth inhibition of the A498 human tumor cell line is measured as a screen for anti-cancer activity. Cells are grown in 96 well plates and exposed to the test compound for 48 hours. Compounds are tested at a single concentration, which is 10^-5 M for most compounds. The reported endpoint is percent growth (GI% or GIPRCNT), where numbers from 0 - 100% represent growth inhibition, and numbers from -100% - 0 represent cell death. For example, a value of 40 represents 60% growth inhibition. […]
Compounds without any hit were thinned out: in the full panel of roughly 83,000, 20% have a hit. Active and inactive are the calls of the source. The calls were made as follows: active = growth percent below 10; inactive = the rest.
The entries below come with measured growth values attached.

What does the record list as growth for S=P(SP(=S)(c1ccccc1)c1ccccc1)(c1ccccc1)c1ccccc1 ?
98.3% (inactive)

What does the record list as growth for COCC1OC2OC3C(COC)OC(OC4C(COC)OC(OC5C(COC)OC(OC6C(COC)OC(OC7C(COC)OC(OC8C(COC)OC(OC1C(O)C2O)C(O)C8O)C(O)C7O)C(O)C6O)C(O)C5O)C(O)C4O)C(O)C3O (configuration not stated) (tested in a mixture with another compound) ?
111% (inactive)

What does the record list as growth for COc1cc(C2C3=C(CCCC3=O)N(CCO)c3cc4c(cc32)CCC4)cc(OC)c1OC (configuration not stated) ?
100% (inactive)

What does the record list as growth for Nc1ccc(S(=O)(=O)F)cc1 ?
94.8% (inactive)

What does the record list as growth for CC1=CC(=Nc2ccc(N(CCCl)CCCl)cc2)C=C(C)C1=O ?
69.8% (inactive)

====

The entries below come with measured growth values attached.
# Tested on: HCT-15 colon
# Measurement Description: NCI-60 one-dose screen, 48 h (100 = growth as untreated, 0 = no growth, -100 = all killed)
# Settings: 10 µM unless noted
About 83,000 compounds went through this panel and 20% of them were active in at least one assay; those are over-represented in the sample as a whole.
Provide only the numeric value, understood in %.

See these solved cases before continuing.
# Molecule, growth (%)
data = [
    ("CCCCS(=O)(=O)Cl", 108),
    ("CO[C@@H]([CH2][Hg][O]C(=O)c1ccccc1)[C@@H]([CH2][Hg][O]C(=O)c1ccccc1)OC", -93.1),
    ("C[C@]12CCC(=O)C[C@@H]1CC[C@@H]1[C@@H]2CC[C@]2(C)[C@@H](OC(=O)N(CCCl)N=O)CC[C@@H]12", 27.9),
    ("CC1OC(=O)C(C(C)C)NC(=O)C(C(C)C)OC(=O)C(C(C)C)NC(=O)C(C)OC(=O)C(C(C)C)NC(=O)C(C(C)C)OC(=O)C(C(C)C)NC(=O)C(C)OC(=O)C(C(C)C)NC(=O)C(C(C)C)OC(=O)C(C(C)C)NC1=O (centres undefined)", -3.27),
    ("CC(C)CCC1C(=O)NC(=O)NC1=O", 101),
]

What does the record list as growth for CC12CCC3C4CCC(=O)C=C4CCC3C1CC1CC(=O)OC12 (centres undefined) ?
112

What does the record list as growth for N#CCC(=O)c1ccccc1 ?
99.8

What does the record list as growth for C[C@]12CC[C@H]3[C@@H](C[C@@H]4SC(Nc5cccc(F)c5)=N[C@@]45CC(=O)CC[C@]35C)[C@@H]1CCC2=O ?
6.88

What does the record list as growth for CC1(C)C=Cc2c(ccc3c2[N+]([O-])=C2C3=C[C@@]34NC(=O)[C@]5(CCCN5C3=O)C[C@@H]4C2(C)C)O1 ?
46.8

====

# System: OVCAR-4 ovarian
# Measurement Description: NCI-60 one-dose screen, 48 h (100 = growth as untreated, 0 = no growth, -100 = all killed)
# Settings: 10 µM unless noted
About 83,000 compounds went through this panel and 20% of them were active in at least one assay; those are over-represented in the sample as a whole.
The entries below come with measured growth values attached.
Provide only the numeric value, understood in %.

# Compound, Result Value
records = [
    ("C#Cc1cccc(Nc2nc(Cl)nc3cc(NC(=O)CF)ccc23)c1", 108),
    ("COc1cc2c(c(OC)c1OC)-c1ccc(O)cc1[C@@H](NC(C)=O)CC2", 19.3),
    ("O=[N+]([O-])c1ccc(CI)cc1", 102),
    ("CN1CCC2(CC1)C(C#N)C(=O)NC(=O)C2C#N (stereo unspecified)", 97.3),
]

What does the record list as growth for Cc1ccc(S(=O)(=O)n2cc([C@@]3(O)C[C@H](CSC#N)OC3=O)c3ccccc32)cc1 ?
75.7

What does the record list as growth for O=S(OO)c1cc(Cl)c(O)c(Cl)c1 (stereo unspecified) ?
89.9

====

# System: NCI/ADR-RES ovarian
# Measurement Description: NCI-60 one-dose screen, 48 h (100 = growth as untreated, 0 = no growth, -100 = all killed)
# Settings: 10 µM unless noted
The panel holds about 83,000 compounds, 20% with a hit somewhere; the sample as a whole holds those more often.
Observed Property: growth (%)
Provide only the numeric value, understood in %.

See these solved cases before continuing.
# Compound, Unit Name, growth
rows = [
    ("CNC(=O)Oc1ccc(Cl)cc1SSc1cc(Cl)ccc1OC(=O)NC", "%", 81.2),
    ("N#Cc1ccc(Cl)cc1", "%", 113),
    ("COc1cc(C2C3=C(CCCC3=O)N(CCO)c3cc4c(cc32)CCC4)cc(OC)c1OC (stereo unspecified)", "%", 87.8),
]

Hi! What's the reported growth for O=NN1CCCCC1 on NCI/ADR-RES ovarian?
110

Hi! What's the reported growth for CC[C@H](C)[C@H](NC(=O)[C@H]1CCCCN1C)C(=O)N(C)[C@H](C(=O)NC12CC(C(=O)N[C@@H](Cc3ccccc3)C[C@H](C)C(=O)OC)(C1)C2)C(C)C on NCI/ADR-RES ovarian?
103

Hi! What's the reported growth for O=Cc1cn(Cc2ccccc2)c2ccccc12 on NCI/ADR-RES ovarian?
82.1

====

# System: DU-145 prostate
# Measurement Description: NCI-60 one-dose screen, 48 h (100 = growth as untreated, 0 = no growth, -100 = all killed)
# Settings: 10 µM unless noted
About 83,000 compounds went through this panel and 20% of them were active in at least one assay; those are over-represented in the sample as a whole.
The entries below come with measured growth values attached.
Provide only the numeric value, understood in %.

# Compound, Target Or System, Unit Name, Result Value
data = [
    ("O=S(OO)c1cc(Cl)c(O)c(Cl)c1 (configuration not stated)", "DU-145 prostate", "%", 113),
    ("O=C1C=C(N2CC2)c2ccccc2C1=O", "DU-145 prostate", "%", 12.1),
    ("Cc1ccccc1-n1c(/C=C\\c2ccccn2)nc2ccccc2c1=O", "DU-145 prostate", "%", 21.3),
    ("CC[C@H](C)[C@H](NC(=O)[C@H]1CCCCN1C)C(=O)N(C)[C@H](C(=O)NC12CC(C(=O)N[C@@H](Cc3ccccc3)C[C@H](C)C(=O)OC)(C1)C2)C(C)C", "DU-145 prostate", "%", 105),
    ("O=S1(=O)OCCO1", "DU-145 prostate", "%", 104),
    ("Nc1c(Cl)c(Cl)nc(C(=O)O)c1Cl", "DU-145 prostate", "%", 120),
    ("Nc1cccnc1", "DU-145 prostate", "%", 125),
    ("COC(=O)[C@@H](C)C[C@H](Cc1ccccc1)NC(=O)c1cccc([C@@H](C[C@H](C(C)C)N(C)C(=O)[C@@H](NC(=O)[C@H]2CCCCN2C)C2CC2)OC(C)=O)n1", "DU-145 prostate", "%", 3.09),
]

What does the record list as growth for N#CC(C#N)=C(C#N)C#N ?
110

What does the record list as growth for C[C@]12CCc3sc(Nc4ccc(OC(F)(F)F)cc4)nc3C1=CC[C@@H]1[C@@H]2CC[C@]2(C)C(=O)CC[C@@H]12 ?
66.1

What does the record list as growth for COc1cc(-c2ccc(N)c(OC)c2)ccc1N ?
103

What does the record list as growth for OCCNC1CCCCC1 ?
107

What does the record list as growth for Cc1cc2c(cc1-c1ccnc(/C=C/C(=O)O)c1)C(C)(C)CCC2(C)C ?
105
